Recorded values, source PubChem BioAssay (NCATS).

- TARGET SYSTEM: Thyrotropin receptor (Homo sapiens)
- PROTOCOL DETAILS: qHTS Assay for Antagonists of the Thyroid Stimulating Hormone Receptor (AID 488980);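 also: TSHR-transfected HEK293 cells stimulated with TSH at EC80 of 4 nM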
- ASSAY SETUP: TSHR-expressing cells, cAMP antagonist read-out; series mostly up to 57.5 µM
Calls of active or inactive are those of the source. Calls follow the shape of the dose curve; as a rule, active = well fitted curve in the direction sought with a large enough effect; inconclusive = small, poorly fitted or top-dose-only effect, or another doubt; inactive = no such curve, though single readings can be large or run the other way.

MOLECULE	outcome
CCC1(O)CC2CN(CCc3c([nH]c4ccccc34)[C@@](C(=O)OC)(c3cc4c(cc3OC)N(C=O)C3[C@]45CCN4CC=C[C@@](CC)([C@@H](OC(C)=O)[C@]3(O)C(=O)OC)[C@H]45)C2)C1 (stereo partly drawn)	inactive
C/C(=C\c1ccc(C(=O)O)cc1)c1ccc2c(c1)C(C)(C)CCC2(C)C	inactive
Nc1nc2ccc(Cl)cc2c2nc(-c3ccco3)nn12	inactive

----------
- PROTOCOL DETAILS: Counterscreen for APE1 Inhibitors: Fluorescent Dye Displacement Validation Assay (AID 1707)
- ASSAY SETUP: fluorescent dye displacement from DNA; series mostly up to 57.1 µM
- Description: In order to distinguish true inhibitors of DNA-processing enzymes from promiscuous DNA-binding compounds among screening assay hits, we developed a homogeneous and miniaturized assay based on fluorescent dye displacement test as originally described by Tse and Boger (Accounts of Chemical Research (2004) 37: 61-69). […]
Results filed as inconclusive are left out. Activity calls are given as the source filed them. Calls follow the shape of the dose curve; as a rule, active = well fitted inhibition curve with a large enough effect; inconclusive = small, poorly fitted or top-dose-only effect; inactive = no such curve, though single readings can be large or run the other way.
I would appreciate it if you answered using one of these outcomes: active, inactive

Prompt: // return assay outcome for `O=C(O)/C(=C/c1c(C(=O)O)[nH]c2cc(Cl)cc(Cl)c12)c1ccccc1`
Response: inactive

Prompt: // return assay outcome for `C=CCN1CCc2c(cc(O)c(O)c2Br)[C@@H](c2ccccc2)C1`
Response: inactive

Prompt: // return assay outcome for `O=C(O)[C@H]1NCCC[C@H]1C(=O)O`
Response: inactive

Prompt: // return assay outcome for O[Si](CCCN1CCCCC1)(c1ccc(F)cc1)C1CCCCC1 (centres undefined)
Response: inactive

Prompt: // return assay outcome for `N=C(N)c1ccccc1`
Response: inactive

Prompt: // return assay outcome for CCCCOc1cc(CC2CNC(=O)N2)ccc1OC (centres undefined)
Response: inactive

Prompt: // return assay outcome for `COc1ccc(-c2ccc(N)[n+](CCCC(=O)O)n2)cc1`
Response: inactive

Prompt: // return assay outcome for `COc1cc(CC(=O)O)ccc1O`
Response: inactive

Prompt: // return assay outcome for O=C(O)CCC(=O)N1CCCC1C(=O)O (centres undefined)
Response: inactive

Prompt: // return assay outcome for N=C(N)c1ccc(OCCCCCOc2ccc(C(=N)N)cc2)cc1 (tested in a mixture with another compound)
Response: inactive

Prompt: // return assay outcome for `N[C@H](C(=O)O)[C@H]1C[C@@H]1C(=O)O`
Response: inactive

Prompt: // return assay outcome for `COc1ccc(CCN(C)CCc2ccc(OC)c(OC)c2)cc1OC`
Response: inactive

Prompt: // return assay outcome for `CNc1ncnc2c1ncn2[C@H]1C[C@H](OP(=O)(O)O)[C@@H](COP(=O)(O)O)O1`
Response: inactive

Prompt: // return assay outcome for `CN(C)C(=O)/N=N/C(=O)N(C)C`
Response: inactive

Prompt: // return assay outcome for `CCN1C(=O)C=CC1=O`
Response: inactive

Prompt: // return assay outcome for `COc1cc(N)c(Cl)cc1C(=O)OCCN1CCCCC1`
Response: inactive

Prompt: // return assay outcome for `CC(=O)C(C)=O`
Response: inactive

Prompt: // return assay outcome for `O=C(O)c1ccccc1Nc1ccccc1`
Response: inactive

Prompt: // return assay outcome for `Nc1ncnc2c1c(-c1ccc(Oc3ccccc3)cc1)cn2C1CCCC1`
Response: inactive

Prompt: // return assay outcome for C=CCN1CCc2c(cc(O)c(O)c2Cl)C(c2ccccc2)C1 (centres undefined)
Response: inactive

Prompt: // return assay outcome for CC(C)NCC(O)COc1ccc(CC(N)=O)cc1 (centres undefined)
Response: inactive

Prompt: // return assay outcome for `COc1ccccc1N1CCN(CCCNc2c(C)c(=O)n(C)c(=O)n2C)CC1`
Response: inactive

Prompt: // return assay outcome for `CCCCCCN(CCCCCC)C(=O)Cc1c(-c2ccc(F)cc2)[nH]c2ccccc12`
Response: inactive

Prompt: // return assay outcome for Oc1cc2c(cc1O)C(c1ccccc1)CNCC2 (centres undefined)
Response: inactive

Prompt: // return assay outcome for `Cn1c(=O)c2c(nc(/C=C/c3cccc(Cl)c3)n2C)n(C)c1=O`
Response: inactive

Prompt: // return assay outcome for `COc1ccc(NC(=O)c2ccc(-c3ccc(-c4noc(C)n4)cc3C)cc2)cc1N1CCN(C)CC1`
Response: inactive

Prompt: // return assay outcome for `N=S(=O)(O)Cc1noc2ccccc12`
Response: inactive

Prompt: // return assay outcome for `CC[C@H](NC(=O)c1c(C)c(-c2ccccc2)nc2ccccc12)c1ccccc1`
Response: inactive

Prompt: // return assay outcome for `Cc1nc(N=Nc2cc(S(=O)(=O)O)c3cc([N+](=O)[O-])cc(S(=O)(=O)O)c3c2)c(COP(=O)(O)O)c(C=O)c1O`
Response: active

Prompt: // return assay outcome for `CCCOC(=O)c1c(-c2ccccc2)nc(CC)c(C(=O)SCC)c1CCC`
Response: inactive

Prompt: // return assay outcome for CC1CCN=C(N)S1 (centres undefined)
Response: inactive

Prompt: // return assay outcome for `CNC(=O)c1cc2c(cn1)[nH]c1ccccc12`
Response: inactive

Prompt: // return assay outcome for `O=C(O)c1cccnc1C(=O)O`
Response: inactive

Prompt: // return assay outcome for `N=C(N)SCCc1cnc[nH]1`
Response: inactive

Prompt: // return assay outcome for `Cn1c(=O)[nH]c2ncn(C)c2c1=O`
Response: inactive

Prompt: // return assay outcome for `Cc1nc(N=Nc2ccc(S(=O)(=O)O)cc2S(=O)(=O)O)c(COP(=O)(O)O)c(C=O)c1O`
Response: inactive

Prompt: // return assay outcome for `Nc1nc2[nH]c(=O)cnc2c(=O)[nH]1`
Response: inactive

Prompt: // return assay outcome for `N[C@@H](CCC(=O)N[C@H](CSN=O)C(=O)NCC(=O)O)C(=O)O`
Response: inactive

Prompt: // return assay outcome for `O=c1cc(O)cc(/C=C/c2ccc(O)c(O)c2)o1`
Response: inactive

Prompt: // return assay outcome for `COc1ccc2c(c1)c(CC(=O)O)c(C)n2Cc1ccc(Cl)cc1`
Response: inactive

Prompt: // return assay outcome for `N[C@@H](CCCC(=O)O)C(=O)O`
Response: inactive

Prompt: // return assay outcome for CC1C(=O)N(C)C(=O)c2nc[nH]c21 (centres undefined)
Response: inactive

Prompt: // return assay outcome for `S=C(S)N1CCCC1`
Response: inactive

Prompt: // return assay outcome for `C#CCn1c(=O)c2c(ncn2C)n(C)c1=O`
Response: inactive

Prompt: // return assay outcome for `COc1cc(/C=C(\C#N)C(=O)c2ccc(O)c(O)c2)cc(I)c1O`
Response: inactive

Prompt: // return assay outcome for `N[C@@H](Cc1ccc(F)cc1)C(=O)O`
Response: inactive

Prompt: // return assay outcome for `COc1ccc(C(=O)NCc2cccnc2)cc1C(=O)NCc1cccnc1`
Response: inactive

Prompt: // return assay outcome for `CCCn1c(=O)c2c(ncn2C)n(CCC)c1=O`
Response: inactive

Prompt: // return assay outcome for `COC(=O)[C@H](NC(=O)c1cc(-c2ccccc2)nc2ccccc12)c1ccccc1`
Response: inactive
